Origin of measurements: ChEMBL document CHEMBL1127364

// values below are IC50; system is UniProtKB Q72874
MEASURE: IC50 (nM)

CC(C)(C)NC(=O)[C@@H]1CN(CCOCc2ccccc2)CCN1C[C@@H](O)C[C@@H](Cc1ccccc1)C(=O)N[C@@H]1c2ccccc2C[C@H]1O :: 1.03
CC(C)(C)NC(=O)[C@@H]1CN(S(=O)(=O)c2cccc3cccnc23)CCN1C[C@@H](O)C[C@@H](Cc1ccccc1)C(=O)N[C@@H]1c2ccccc2C[C@H]1O :: 0.013
CC(C)(C)NC(=O)[C@@H]1CN(C(=O)OCc2ccccc2)CCN1C[C@@H](O)C[C@@H](Cc1ccccc1)C(=O)NC1c2ccccc2C[C@H]1O (single isomer, unassigned) :: 0.36

----------
Each entry below carries its recorded logP.
- METHOD DESCRIPTION: Partition coefficient of the compound was evaluated
- Type: physicochemical
- CONDITION SET: octanol/water
MEASURE: logP

CC(C)(C)NC(=O)[C@@H]1CN(Cc2cccnc2)CCN1C[C@@H](O)C[C@@H](Cc1ccccc1)C(=O)NC1c2ccccc2C[C@H]1O.O (single isomer, unassigned) :: 2.92
CC(C)(C)NC(=O)[C@@H]1CN(S(=O)(=O)c2cccc3cccnc23)CCN1C[C@@H](O)C[C@@H](Cc1ccccc1)C(=O)N[C@@H]1c2ccccc2C[C@H]1O :: 3.7
CC(C)(C)NC(=O)[C@@H]1CN(Cc2ccc(F)cc2F)CCN1C[C@@H](O)C[C@@H](Cc1ccccc1)C(=O)N[C@@H]1c2ccccc2C[C@H]1O :: 3.69
CC(C)(C)NC(=O)[C@@H]1CN(C(=O)OCc2ccccc2)CCN1C[C@@H](O)C[C@@H](Cc1ccccc1)C(=O)NC1c2ccccc2C[C@H]1O (single isomer, unassigned) :: 4.67

----------
- TEST TARGET: Human immunodeficiency virus type 1 protease (Human immunodeficiency virus 1)
Note to self: use Criterion met only for IC50 readings below 40 nM; a reading exactly at 40 nM still gets Criterion not met.

CC(C)(C)NC(=O)[C@@H]1CCCCN1C[C@@H](O)C[C@@H](Cc1ccccc1)C(=O)N[C@@H]1c2ccccc2C[C@H]1O :: Criterion not met
CC(C)(C)NC(=O)[C@@H]1CCCN1C[C@@H](O)C[C@@H](Cc1ccccc1)C(=O)N[C@@H]1c2ccccc2C[C@H]1O :: Criterion not met
CC(C)(C)NC(=O)[C@@H]1CC2CCCCC2CN1C[C@@H](O)C[C@@H](Cc1ccccc1)C(=O)N[C@@H]1c2ccccc2C[C@H]1O (stereo partly drawn) :: Criterion met
CC(C)(C)NC(=O)[C@@H]1CN(CC(=O)OC(C)(C)C)CCN1C[C@@H](O)C[C@@H](Cc1ccccc1)C(=O)N[C@@H]1c2ccccc2C[C@H]1O :: Criterion met
CC(C)(C)NC(=O)[C@@H]1CN(S(=O)(=O)c2cccnc2)CCN1C[C@@H](O)C[C@@H](Cc1ccccc1)C(=O)N[C@@H]1c2ccccc2C[C@H]1O :: Criterion met
CC(C)(C)NC(=O)[C@@H]1CNCCN1C[C@@H](O)C[C@@H](Cc1ccccc1)C(=O)N[C@@H]1c2ccccc2C[C@H]1O :: Criterion met
CC(C)(C)NC(=O)[C@@H]1CN(Cc2ccncc2)CCN1C[C@@H](O)C[C@@H](Cc1ccccc1)C(=O)N[C@@H]1c2ccccc2C[C@H]1O :: Criterion met
CC(C)(C)NC(=O)[C@@H]1C[C@H](Oc2ccc3ccccc3c2)CN1C[C@@H](O)C[C@@H](Cc1ccccc1)C(=O)N[C@@H]1c2ccccc2C[C@H]1O :: Criterion met

----------
- TEST TARGET: Human immunodeficiency virus type 1 protease (Human immunodeficiency virus 1) (UniProt Q72874)
- METHOD DESCRIPTION: Inhibition of the spread of HIV-1 IIIb infection in MT-4 human T-lymphoid cells
- Assay type: functional, cell-based
The following compounds are listed with their measured log10(IC95) values.
MEASURE: log10(IC95) (log10 of the value in nM)

CC(C)(C)NC(=O)[C@@H]1CN(C(=O)OCc2ccccc2)CCN1C[C@@H](O)C[C@@H](Cc1ccccc1)C(=O)NC1c2ccccc2C[C@H]1O (single isomer, unassigned) :: 2.00
CC(C)(C)NC(=O)[C@@H]1CN(CC(=O)OC(C)(C)C)CCN1C[C@@H](O)C[C@@H](Cc1ccccc1)C(=O)N[C@@H]1c2ccccc2C[C@H]1O :: 2.00
CC(C)(C)NC(=O)[C@@H]1CN(C(=O)c2cc3ccccc3oc2=O)CCN1C[C@@H](O)C[C@@H](Cc1ccccc1)C(=O)N[C@@H]1c2ccccc2C[C@H]1O :: 1.70
Cc1nc(S(=O)(=O)N2CCN(C[C@@H](O)C[C@@H](Cc3ccccc3)C(=O)N[C@@H]3c4ccccc4C[C@H]3O)[C@H](C(=O)NC(C)(C)C)C2)c(C)s1 :: 2.30
CC(C)(C)NC(=O)[C@@H]1CN(Cc2ccccc2)CCN1C[C@@H](O)C[C@@H](Cc1ccccc1)C(=O)N[C@@H]1c2ccccc2C[C@H]1O :: 1.70
CC(C)(C)NC(=O)[C@@H]1CC2CCCCC2CN1C[C@@H](O)C[C@@H](Cc1ccccc1)C(=O)N[C@@H]1c2ccccc2C[C@H]1O (stereo not given in full) :: 2.60
CC(C)(C)NC(=O)[C@@H]1CN(CCOCc2ccccc2)CCN1C[C@@H](O)C[C@@H](Cc1ccccc1)C(=O)N[C@@H]1c2ccccc2C[C@H]1O :: 2.00
CC(C)(C)NC(=O)[C@@H]1CNCCN1C[C@@H](O)C[C@@H](Cc1ccccc1)C(=O)N[C@@H]1c2ccccc2C[C@H]1O :: 3.48
CC(C)(C)NC(=O)[C@@H]1CN(S(=O)(=O)c2cccnc2)CCN1C[C@@H](O)C[C@@H](Cc1ccccc1)C(=O)N[C@@H]1c2ccccc2C[C@H]1O :: 2.30
CC(C)(C)NC(=O)[C@@H]1CN(Cc2ccccc2S)CCN1C[C@@H](O)C[C@@H](Cc1ccccc1)C(=O)N[C@@H]1c2ccccc2C[C@H]1O :: 1.40

----------
- TEST TARGET: Human immunodeficiency virus type 1 protease (Human immunodeficiency virus 1) (UniProt Q72874)
- METHOD DESCRIPTION: Inhibition of the spread of HIV-1 IIIb infection in MT-4 human T-lymphoid cells
- Format: functional, cell-based
Measured IC95 by item
MEASURE: IC95

CCN1CCN(C[C@@H](O)C[C@@H](Cc2ccccc2)C(=O)N[C@@H]2c3ccccc3C[C@H]2O)[C@H](C(=O)NC(C)(C)C)C1 :: > 0.4 µM
CC(C)(C)NC(=O)[C@@H]1C[C@H](Oc2ccc3ccccc3c2)CN1C[C@@H](O)C[C@@H](Cc1ccccc1)C(=O)N[C@@H]1c2ccccc2C[C@H]1O :: > 0.4 µM
CC(C)(C)NC(=O)[C@@H]1CCCN1C[C@@H](O)C[C@@H](Cc1ccccc1)C(=O)N[C@@H]1c2ccccc2C[C@H]1O :: 1.5 µM

----------
- TEST TARGET: Human immunodeficiency virus type 1 protease (Human immunodeficiency virus 1, UniProt Q72874)
MEASURE: IC50 (nM)

CC(C)(C)NC(=O)[C@@H]1CN(C(=O)c2cc3ccccc3oc2=O)CCN1C[C@@H](O)C[C@@H](Cc1ccccc1)C(=O)N[C@@H]1c2ccccc2C[C@H]1O :: 0.13
CC(C)(C)NC(=O)[C@@H]1CN(Cc2ccccc2S)CCN1C[C@@H](O)C[C@@H](Cc1ccccc1)C(=O)N[C@@H]1c2ccccc2C[C@H]1O :: 0.54
CCN1CCN(C[C@@H](O)C[C@@H](Cc2ccccc2)C(=O)N[C@@H]2c3ccccc3C[C@H]2O)[C@H](C(=O)NC(C)(C)C)C1 :: 6.1
CC(C)(C)NC(=O)[C@@H]1CN(Cc2ccc(F)cc2F)CCN1C[C@@H](O)C[C@@H](Cc1ccccc1)C(=O)N[C@@H]1c2ccccc2C[C@H]1O :: 0.31
Cc1nc(S(=O)(=O)N2CCN(C[C@@H](O)C[C@@H](Cc3ccccc3)C(=O)N[C@@H]3c4ccccc4C[C@H]3O)[C@H](C(=O)NC(C)(C)C)C2)c(C)s1 :: 0.16
CC(C)(C)NC(=O)[C@@H]1CN(Cc2ccccc2)CCN1C[C@@H](O)C[C@@H](Cc1ccccc1)C(=O)N[C@@H]1c2ccccc2C[C@H]1O :: 0.3

----------
- METHOD DESCRIPTION: Compound was evaluated for maximum plasma concentration levels in dogs at 10 mg/kg (in 0.05M citric acid solution) po
- CONDITION SET: dog
Property: Cmax; scope: individual compounds
MEASURE: Cmax (nM)

CC(C)(C)NC(=O)[C@@H]1CN(Cc2cccnc2)CCN1C[C@@H](O)C[C@@H](Cc1ccccc1)C(=O)NC1c2ccccc2C[C@H]1O.O (single isomer, unassigned) :: 11400
CC(C)(C)NC(=O)[C@@H]1CN(Cc2ccc(F)cc2F)CCN1C[C@@H](O)C[C@@H](Cc1ccccc1)C(=O)N[C@@H]1c2ccccc2C[C@H]1O :: 730

----------
- METHOD DESCRIPTION: Compound was evaluated for the solubility at pH value of 7.4
- Type: physicochemical
- CONDITION SET: pH 7.4
Below: a set of entries, each annotated with reported solubility.
MEASURE: solubility

CC(C)(C)NC(=O)[C@@H]1CN(C(=O)OCc2ccccc2)CCN1C[C@@H](O)C[C@@H](Cc1ccccc1)C(=O)NC1c2ccccc2C[C@H]1O (single isomer, unassigned) :: < 1 µg/mL
CC(C)(C)NC(=O)[C@@H]1CN(S(=O)(=O)c2cccc3cccnc23)CCN1C[C@@H](O)C[C@@H](Cc1ccccc1)C(=O)N[C@@H]1c2ccccc2C[C@H]1O :: < 1 µg/mL
